- tested on: renin (Homo sapiens)
- Sequence (P00797 67-406, species assumed): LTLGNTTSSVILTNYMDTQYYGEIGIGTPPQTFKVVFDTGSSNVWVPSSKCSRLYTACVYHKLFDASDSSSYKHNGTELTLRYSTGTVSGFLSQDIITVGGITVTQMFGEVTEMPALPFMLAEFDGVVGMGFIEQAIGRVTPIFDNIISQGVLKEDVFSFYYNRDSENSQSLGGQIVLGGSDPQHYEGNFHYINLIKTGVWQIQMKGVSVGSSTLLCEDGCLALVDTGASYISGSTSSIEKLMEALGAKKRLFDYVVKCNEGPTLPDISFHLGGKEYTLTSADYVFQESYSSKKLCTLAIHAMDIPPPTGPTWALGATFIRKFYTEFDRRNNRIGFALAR
recorded metric: pIC50
Hey, just a heads up that pIC50 is the negative log base 10 of the concentration in molar.

In plain terms, CC(C)S(=O)(=O)C[C@@H](CCc1ccccc1)C(=O)N[C@@H](Cc1cnc[nH]1)C(=O)N[C@@H](CC1CCCCC1)[C@@H](O)CC(=O)NC1CN2CCC1CC2 (stereo partly shown) has a documented pIC50 of 7.96
